Data provenance is PubChem BioAssay (NCI).

system: SK-MEL-28 melanoma; test: NCI-60 one-dose screen, 48 h (100 = growth as untreated, 0 = no growth, -100 = all killed); conditions: 10 µM unless noted
The panel holds about 83,000 compounds, 20% with a hit somewhere; the sample as a whole holds those more often.
Could you please report measured growth for the items listed next?
Answers are plain numbers, in %.

Q. What measured growth is associated with "NC(=O)Nc1ccc2ncnc(Nc3cccc(O)c3)c2c1" on SK-MEL-28 melanoma?
A. 114

Q. Cool, now "CC(=O)[C@H]1CC[C@H]2[C@@H]3CC[C@H]4CC=CC[C@]4(C)[C@H]3CC[C@]12C"
A. 89.1

Need growth for each of these molecules.
1. Oc1ccc(Nc2ncnc3c2sc2ncccc23)cc1
2. CCc1ccc(Nc2ncnc3c2cnn3-c2cccc(Br)c2)cc1

A.
1. 65.7
2. 107

Batch lookup, growth per entry.
1. O=C1C=CC(=O)N1CO
2. Fc1cc(-c2nnc3sc(-c4ccc(Cl)cc4)nn23)c(Cl)cc1Cl
3. COc1ccc(/C=c2\c(=O)n(-c3ccccc3)c3nn4c(n23)=NNC42CCCCC2)cc1

A.
1. 117
2. 84.4
3. 111

List growth for every entry below, keeping the order given.
1. COC(=O)c1ccc(NC(N)=NCCC(C)(C)c2ccc(C(F)(F)F)cc2)nc1
2. Clc1ncnc2scc(C3COc4ccccc4O3)c12 (stereo unspecified)
3. Fc1cnccc1-c1nc2ccc3[nH]ncc3c2c2c1CCCC2
4. O=C(O)c1ccccc1N=Cc1ccccc1

A.
1: 35.2; 2: 83.8; 3: 24.3; 4: 129

====

System: RXF 393 renal
Test: NCI-60 one-dose screen, 48 h (100 = growth as untreated, 0 = no growth, -100 = all killed)
Conditions: 10 µM unless noted
Protocol: Cells are grown in 96 well plates and exposed to the test compound for 48 hours. Compounds are tested at a single concentration, which is 10^-5 M for most compounds. The reported endpoint is percent growth (GI% or GIPRCNT), where numbers from 0 - 100% represent growth inhibition, and numbers from -100% - 0 represent cell death. For example, a value of 40 represents 60% growth inhibition. A value of 0 means no net growth occurred over the course of the experiment. […]
About 83,000 compounds went through this panel and 20% of them were active in at least one assay; those are over-represented in the sample as a whole.
measure: growth (%)
One number for each entry, in %.

Known growth results, listed for orientation:
Q. I am curious: what growth value has been reported for "COc1cc(OC)cc(-c2n/c(=C\c3c(O)[nH]c4ccc(Cl)cc34)cc3c2=Nc2ccccc2-3)c1" ?
A. 76.8

Q. Now consider "O=C(CCCCCCc1nc2ccc(Br)cc2[nH]1)NO" and answer again.
A. -78.3

Q. Same for "NCCCOc1cc2ccccc2cc1C(=O)NCCCOc1cc2ccccc2cc1C(=O)Nc1ccc(Cl)cc1O"
A. -96.5

Q. Same question for O=C(Oc1c(Cl)c(Cl)c(Cl)c(Cl)c1Cl)C1CCCN1C(=O)OCc1ccccc1 (centres undefined) please.
A. 92.2

Q. Check "COc1ccc(C(=O)/C=C/c2cn(-c3ccccc3)nc2-c2cccc(Nc3ccnc4cc(Cl)ccc34)c2)cc1" too.
A. 95.2

Batch lookup, growth per entry.
1. CC(C)(C)c1ccc(Cn2c(-c3nonc3N)nc3ccccc32)cc1
2. CC(=O)O[C@H]1[C@H](CC#CC#CC[C@@H]2C[C@]3(C)[C@H]4CC=C5[C@H]6[C@@H](C)[C@H](C)CC[C@]6(C(=O)NCCN(CCN)CCN)CC[C@@]5(C)[C@]4(C)CC[C@H]3C(C)(C)[C@H]2OC(C)=O)C[C@]2(C)[C@H]3CC=C4[C@H]5[C@@H](C)[C@H](C)CC[C@]5(C(=O)NCCN(CCN)CCN)CC[C@@]4(C)[C@]3(C)CC[C@H]2C1(C)C
3. COc1cc(C2CC(c3cccc(Nc4ccnc5cc(Cl)ccc45)c3)=NN2c2ccccc2)cc(OC)c1OC (centres undefined)
4. CC(C)=CCC[C@H](C)c1ccc(C)c2c1OCN(CCO)C2
5. ClCc1cccc(CSc2ncnc3c2ncn3Cc2cccc(CCl)c2)c1

A.
1. 77.8
2. 57.9
3. 93.1
4. 52.4
5. -20.2

Your task in this section: give growth for each listed record.
1. O=c1[nH]cnc2nc[nH]c12
2. COc1cccc(CC(C)=C(c2ccc(OCCCN(C)C)cc2)c2ccc(OCCCN(C)C)cc2)c1
3. O=C(NCC(c1ccsc1)N1CCCCCC1)c1ccc(C(F)(F)F)cc1 (centres undefined)
4. COc1ccc(NC(=O)c2ccc(C(F)(F)F)nc2Nc2ccc(Cl)cc2C)cc1Cl

A.
1. 107
2. -89.5
3. 85.7
4. 42.5
